Target under test: murine SR-BI (Mus musculus, UniProt Q61009)
Construct: expressed in transfected cells; host or cells: ldlA-7 (LDL receptor deficient Chinese hamster ovary cells)
Sequence (Q61009 whole entry): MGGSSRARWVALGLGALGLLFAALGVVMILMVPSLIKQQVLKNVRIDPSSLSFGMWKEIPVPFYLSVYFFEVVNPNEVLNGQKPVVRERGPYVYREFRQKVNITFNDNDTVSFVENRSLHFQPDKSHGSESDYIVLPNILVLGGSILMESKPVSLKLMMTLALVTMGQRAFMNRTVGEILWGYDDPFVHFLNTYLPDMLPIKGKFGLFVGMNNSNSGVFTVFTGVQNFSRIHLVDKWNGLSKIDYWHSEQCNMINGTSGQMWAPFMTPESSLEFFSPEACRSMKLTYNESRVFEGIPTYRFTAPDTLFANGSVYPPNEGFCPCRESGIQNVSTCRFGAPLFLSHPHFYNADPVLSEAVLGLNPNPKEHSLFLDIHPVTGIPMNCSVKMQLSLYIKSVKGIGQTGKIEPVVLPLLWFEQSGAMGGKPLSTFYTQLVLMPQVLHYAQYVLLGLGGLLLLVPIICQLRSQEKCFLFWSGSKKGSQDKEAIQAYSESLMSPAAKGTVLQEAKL
Run description: Uptake of DiI from DiI-HDL by ldlA[mSR-BI] cells (high throughput screen and concentration dependence)
Type: cell-based
Condition context: Test 2
Can you tell me ENDOHDL Test 2 for the items I'm about to list?
Numbers only.

// worked examples, ENDOHDL Test 2 included
Compound: CN(N)c1nc(-c2ccccc2)cc(-c2ccccc2)n1 [MIT 9952-252]
ENDOHDL Test 2: 0.39

Compound: O=S(=O)([O-])C(F)(F)F.O=[N+]([O-])c1ccc([I+]c2ccc(F)cc2)cc1 [MIT 9952-241]
ENDOHDL Test 2: 0.52

Compound: O=C(N/N=C/c1ccc(O)cc1)C1CC1(c1ccccc1)c1ccccc1 (stereo not drawn) [MIT 9952-87]
ENDOHDL Test 2: 0.67

Compound: COc1ccc(C(=O)Nc2ccc(I)cc2)cc1OC [MIT 9952-253]
ENDOHDL Test 2: 0.65

Compound: COc1c(Cl)cc(Cl)cc1C(=O)Nc1ccc(Br)cc1 [MIT 9952-155]
ENDOHDL Test 2: 0.47

Compound: O=C1CC(N2CCOCC2)C(=O)N1c1ccc(Br)cc1 (stereo not drawn) [MIT 9952-17]
ENDOHDL Test 2: 1.17

Compound: O=C(Nc1ccc(Cl)cc1)c1ccc(N2C(=O)c3ccc(C(=O)Nc4ccc(Cl)cc4)cc3C2=O)cc1 [MIT 9952-161]
ENDOHDL Test 2: 1.5

Compound: C/C(=N\Nc1ccc([N+](=O)[O-])cc1)c1ccc([N+](=O)[O-])cc1 [MIT 9952-245]
ENDOHDL Test 2: 0.64

Now for the compound whose ENDOHDL Test 2 we want.
Looking up CCCCCCC1CCC/C1=N\NC(N)=S (stereo not drawn) [MIT 9952-185] , I found its ENDOHDL Test 2 recorded as 0.46
